Here the recorded kon is given for each entry.
- tgt: T1, recombinant extracellular domain (ECD) of human TF, amino acid 1-219 of the mature chain, C-terminal His6-tag (human, UniProt P13726 33-251)
- T1 construct: expressed in a mammalian system; used for ELISA and Biacore; biotinylated by NHS-ester for the Fab ELISA; also called His6-TF-ECD1-219; HumanTF1-219
- protocol_summary: Biacore
Expressed in M⁻¹ s⁻¹, but write only the number.

Reported kon of M1584 (antibody, V domains shown, complete MAb; FR4 is its own entry; also called H173/L3) VH: EVQLVQSGAEVKKPGESLRISCKGSGYTFVTYWIEWVRQMPGKGLEWMGDILPGTGYTVYSPSFQGHVTISADKSISTAYLQWSSLKASDTAMYYCARSGYYGNSGFAYWGQGTLVTVSS VL: DIVMTQTPLSLPVTPGEPASISCKSSQSLLSSGNQKNYLTWYLQKPGQSPQLLIYWASTRESGVPDRFSGSGSGTDFTLKISRVEAEDVGVYYCQNDYTYPLTFGQGTKLEIK : 184000

Others:
Reported kon of M58 (antibody, V domains shown, complete MAb; FR4 is its own entry; also called H22/L2) VH: EVQLVQSGAEVKKPGESLRISCKGSGYTFITYWIEWVRQMPGKGLEWMGDILPGSGSTNYSPSFQGHVTISADKSISTAYLQWSSLKASDTAMYYCARSGYYGNSGFAYWGQGTLVTVSS VL: DIVMTQSPDSLAVSLGERATINCKSSQSLLSSGNQKNYLTWYQQKPGQPPKLLIYWASTRESGVPDRFSGSGSGTDFTLTISSLQAEDVAVYYCQNDYTYPLTFGQGTKLEIK : 94800
